As shown below, each of these binders has a reported Binding Signal (fold over 6E7 Parental antibody) value.
system: T1, human TREM2 (human, UniProt Q9NZC2 19-174, limits assumed)
T1 construct: also called triggering receptor expressed on myeloid cells 2
T1 sequence: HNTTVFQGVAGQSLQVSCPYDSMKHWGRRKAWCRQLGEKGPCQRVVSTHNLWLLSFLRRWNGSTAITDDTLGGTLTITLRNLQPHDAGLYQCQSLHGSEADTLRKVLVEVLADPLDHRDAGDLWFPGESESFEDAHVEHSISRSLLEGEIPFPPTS
assay-summary: 2nd screen 10 nM

INSERT INTO assay_data (binder, observed_result) VALUES
  ('V77 (antibody, V domains shown) VH: EVQLVQSGAEVKKPGESLKISCKGSGYSFTSYWIAWVRQMPGKGLEWMGIIYPGDSDTRYSPSFQGQVTISADKSISTAYLQWSSLKASDTAMYFCARQRTFYYDSSDYFDYWGQGTLVTVSS VL: DIQMTQSPSSVSASVGDRVTITCRASQGISSWLAWYQQKPGKAPKLLIYAASSRQNGVPSRFSGSGSGTDFTLTISSLQPEDFATYFCQQADSFPRTFGQGTKLEIK', '1.38 fold'),
  ('V24 (antibody, V domains shown) VH: EVQLVQSGAEVKKPGESLKISCKGSGYSFTSYWIAWVRQMPGKGLEWMGIIYPGDSDVRYSPSFQGQVTISADKSISTAYLQWSSLKASDTAMYFCARSRTFYYDSSDYFDYWGQGTLVTVSS VL: DIQMTQSPSSVSASVGDRVTITCRASQGISSWLAWYQQKPGKAPKLLIYAASSLQKGVPSRFSGSGSGTDFTLTISSLQPEDFATYFCQQADSFPHTFGQGTKLEIK', '2.9 fold'),
  ('V52 (antibody, V domains shown) VH: EVQLVQSGAEVKKPGESLKISCKGSGYSFESYWIAWVRQMPGKGLEWMGIIYPGDSDTRYSPSFQGQVTISADKSISTAYLQWSSLKASDTAMYFCARGRTFYYDSSDYFDYWGQGTLVTVSS VL: DIQMTQSPSSVSASVGDRVTITCRASQGISSWLAWYQQKPGKAPKLLIYAASSLQRGVPSRFSGSGSGTDFTLTISSLQPEDFATYFCQQADRFPRTFGQGTKLEIK', '3.09 fold'),
  ('V2 (antibody, V domains shown) VH: EVQLVQSGAEVKKPGESLKISCKGSGSSFTSYWIAWVRQMPGKGLEWMGIIYPGDGDTRYSPSFQGQVTISADKSISTAYLQWSSLKASDTAMYFCARSRTFYYDSSDYFDYWGQGTLVTVSS VL: DIQMTQSPSSVSASVGDRVTITCRASQGISSWLAWYQQKPGKAPKLLIYAASSRQNGVPSRFSGSGSGTDFTLTISSLQPEDFATYFCQQADRFPRTFGQGTKLEIK', '2.9 fold');

Now for another entry.
Quick note, Binding Signal (fold over 6E7 Parental antibody) for V65 (antibody, V domains shown) VH: EVQLVQSGAEVKKPGESLKISCKGSGYSFTSYWIAWVRQMPGKGLEWMGIIYPGDSDTRYSPSFQGQVTISADKSISTAYLQWSSLKASDTAMYFCARSRTFYYDSSDYFDYWGQGTLVTVSS VL: DIQMTQSPSSVSASVGDRVTITCRASQGISSWLAWYQQKPGKAPKLLIYAASSLQNGVPSRFSGSGSGTDFTLTISSLQPEDFATYFCQQADSFPRTFGQGTKLEIK landed at 2.75 fold
